system: RXF 393 renal; experiment: NCI-60 one-dose screen, 48 h; conditions: 10 µM unless noted
About 83,000 compounds went through this panel and 20% of them were active in at least one assay; those are over-represented in the sample as a whole. Calls of active or inactive are those of the source. How the source made its calls: active means growth percent below 10; inactive means the rest.
Tick one outcome: label 1 (active), label 0 (inactive)

Problem: Per the records of this test, what outcome belongs to COc1ccc(/C=C(\C#N)C(=O)Nc2cccc(Nc3nc(SC)nc(-c4cccc([N+](=O)[O-])c4)c3C#N)c2)cc1OC ?
Result: label 0

Problem: Another molecule to check: O=c1oc2c(C(F)(F)F)cccc2cc1-c1csc(Nc2ccc(OCCF)cc2)n1
Result: label 0

Problem: Another molecule to check: NC(=NCCCOc1ccc(Cl)cc1)Nc1ccc(Cl)cc1
Result: label 0

Problem: Another molecule to check: CC(=O)OC[C@H]1O[C@H](OC(C)=O)[C@H](NC(=O)/C=C/CCl)[C@@H](OC(C)=O)[C@@H]1OC(C)=O
Result: label 0

Problem: Another molecule to check: NC(=NC1C2CC3CC(C2)CC1C3)Nc1ccc(I)cc1 (configuration not stated)
Result: label 0

Problem: Another molecule to check: CC(=O)O[C@H]1CC[C@]2(C)[C@H]3CC=C4[C@@H]5CC(C)(C)CC[C@]5(C(=O)NCCNCCNCCN)CC[C@@]4(C)[C@]3(C)CC[C@H]2C1(C)C
Result: label 0

Problem: Another molecule to check: Cc1cc(C)nc(SC2=C(Nc3cccc(Cl)c3)C(=O)N(Cc3ccccc3)C2=O)n1
Result: label 0

Problem: Another molecule to check: COc1ccc(-n2nc(C)c3c(Nc4ccc(NC(=O)Nc5cccc(C(F)(F)F)c5)cc4)ncnc32)cc1
Result: label 1

Problem: Another molecule to check: O=C1c2cc3c(cc2-c2c1c1ccc(F)cc1c(=O)n2C[C@H](O)[C@H](O)[C@H](O)CO)OCO3
Result: label 1

Problem: Another molecule to check: O=C1CC[C@H](c2ccc(O)c3c2C(=O)[C@@H]2O[C@@H]2C3=O)c2cccc(O)c21
Result: label 0

Problem: Another molecule to check: COc1nc2c(c(=O)n1C)CN(Cc1ccccc1)C=N2
Result: label 0

Problem: Another molecule to check: COc1cc(/C=C/c2cc(/C=C/c3ccc(O)c(OC)c3)n(-c3c(Cl)cccc3Cl)c(=O)n2)ccc1O
Result: label 1

Problem: Another molecule to check: O=C1c2cc3c(cc2-c2c1c1ccc(Cl)cc1c(=O)n2CCCN1CCOCC1)OCO3
Result: label 0

Problem: Another molecule to check: O=C(O)c1ccc(N=CC(=O)c2ccc(-c3ccccc3)cc2)cc1
Result: label 0

Problem: Another molecule to check: Oc1cccc2ccc(N/N=C/c3cc(CN4CCOCC4)c(O)c4ncccc34)nc12
Result: label 0

Problem: Another molecule to check: CN(Cc1cc(Cl)cc(Cl)c1O)Cc1cc(Cl)cc(Cl)c1O
Result: label 0

Problem: Another molecule to check: CCn1c(O)c(/C=N/NC(=O)C(C)c2ccc(CC(C)C)cc2)sc1=S (configuration not stated)
Result: label 1

Problem: Another molecule to check: COc1cccc2c1C(=O)c1c(O)c3c(c(O)c1C2=O)C[C@](O)(C(=O)CO)C[C@H]3O[C@@H]1C[C@@H](NC(=O)CCCN(C)C2(c3ccc(F)cc3)CC3CCC2C3)[C@H](O)[C@@H](C)O1 (some centres not stated)
Result: label 1

Problem: Another molecule to check: Cc1cc(N2CCN(C)CC2)nc(NC2CCCC(Nc3ccnc4cc(Cl)ccc34)C2)n1 (configuration not stated)
Result: label 1

Problem: Another molecule to check: CCOc1nc(-c2ccccc2)cc2c(O)c(C(=O)N/N=C/c3ccc(O)cc3O)[nH]c(=O)c12
Result: label 1

Problem: Another molecule to check: Cc1ccc(NS(=O)(=O)c2ccc(-c3cnc(C4CC4)o3)cc2)cc1C
Result: label 1

Problem: Another molecule to check: Clc1ccc2c(NCCCNc3nc(-n4ccnc4)nc4ccccc34)ccnc2c1
Result: label 0

Problem: Another molecule to check: CN1CCN(CCCOc2cccc3nc(Nc4cc(Cl)cc(Cl)c4)ccc23)CC1
Result: label 0

Problem: Another molecule to check: CCCCCCN(CCCCCC)C(=N)c1ccnc2ccccc12
Result: label 0

Problem: Another molecule to check: CCN1CCC2(CC1)NC(=O)c1c(c3ccc(Cl)c(Cl)c3n1C)C2C#N (configuration not stated)
Result: label 0

Problem: Another molecule to check: CS(=O)(=O)c1ccc(-n2nc(-c3ccc(Br)cc3)c3ccccc3c2=O)cc1
Result: label 0

Problem: Another molecule to check: Cn1c(O)c(N=NC(=O)c2cc(-c3ccccc3)on2)c2ccccc21
Result: label 0

Problem: Another molecule to check: NC(=NCCCC1(c2ccccc2)CCCC1)Nc1ccc(Cl)cc1
Result: label 0

Problem: Another molecule to check: O=C1c2cc3c(cc2-c2c1c1cc(F)c(F)cc1c(=O)n2CCCn1ccnc1)OCO3
Result: label 1

Problem: Another molecule to check: Cc1ccccc1COc1ccc(-c2ccnn2-c2ccc(Cl)cc2)cc1
Result: label 0

Problem: Another molecule to check: CCCc1cc(=O)n2c(C(=O)Nc3cccc(C(=O)OCC)c3)c(C(=O)Nc3ccc(F)cc3)sc2n1
Result: label 1

Problem: Another molecule to check: Cc1cc(N2CCCCCC2)nc(NC2CCCC(Nc3ccnc4cc(Cl)ccc34)C2)n1 (configuration not stated)
Result: label 1

Problem: Another molecule to check: C=C(C)C(=O)Nc1ccc(NC(C)C)cc1
Result: label 0

Problem: Another molecule to check: Cn1cc(-c2nonc2-c2c[nH]c3ccc(F)cc23)c2cccnc21
Result: label 0

Problem: Another molecule to check: COc1cc(C)c(C2C(C#N)=C(N)Oc3n[nH]c(-c4cccs4)c32)cc1C(C)C (configuration not stated)
Result: label 0

Problem: Another molecule to check: C=C1C(=O)O[C@H]2[C@H]1CC/C(C=Nc1ccc(C(F)(F)F)cc1N)=C\CC[C@@]1(C)O[C@@H]21
Result: label 1

Problem: Another molecule to check: COc1ccc(C2CC(c3ccc(Cl)cc3)=NN2/C=C2\SC(=S)N(NC(=O)Cc3ccccc3Nc3c(Cl)cccc3Cl)C2=O)cc1 (configuration not stated)
Result: label 0

###

system: SF-295 CNS; assay: NCI-60 one-dose screen, 48 h; conditions: 10 µM unless noted
About 83,000 compounds went through this panel and 20% of them were active in at least one assay; those are over-represented in the sample as a whole. Active and inactive are the calls of the source. The calls were made as follows: active = growth percent below 10; inactive = the rest.
Tick one outcome: label 1 = active, label 0 = inactive

Problem: Per the records of this test, what outcome belongs to CC(C)CSc1nc(N)nc2c1ncn2C1OC(CO)C(O)C1O (stereo unspecified) ?
Result: label 0

Problem: Another compound to check: COc1ccc(-c2cc(C(=O)N=Nc3c(O)[nH]c4ccc(Br)cc34)no2)cc1
Result: label 0

Problem: Another compound to check: COc1ccc(S(=O)(=O)N2CCCCCC2)cc1NC(=O)c1[nH]c(C)c2c1CCCCC2=O
Result: label 0

Problem: Another compound to check: CC(=O)c1cc2c(N)c(C(=O)Nc3cccc4ccccc34)sc2nc1C
Result: label 0

Problem: Another compound to check: Cn1ncc2c(=O)nc3c(-c4ccccc4)n[nH]n3c21
Result: label 0

Problem: Another compound to check: O=CNc1ccc2c(c1)Cc1cccc(NC=O)c1-2
Result: label 0

Problem: Another compound to check: CC(=O)Nc1ccc(-n2c(O)c(/C=N/NC(=O)Cc3ccccc3Nc3c(Cl)cccc3Cl)sc2=S)cc1
Result: label 0

Problem: Another compound to check: COc1ccc2c(c1)c(-c1nonc1-c1cn(C)c3ccccc13)cn2C
Result: label 0

Problem: Another compound to check: Fc1ccc(CNc2cccc3[nH]c(C(F)(F)F)nc23)cc1
Result: label 0

Problem: Another compound to check: O=C1C=C(OCC=C(Cl)Cl)C(=O)c2ccccc21
Result: label 0

Problem: Another compound to check: CCCOc1ccc2nc(NC(=O)OC)[nH]c2c1
Result: label 1

###

system: DU-145 prostate; test: NCI-60 one-dose screen, 48 h (100 = growth as untreated, 0 = no growth, -100 = all killed); conditions: 10 µM unless noted
The panel holds about 83,000 compounds, 20% with a hit somewhere; the sample as a whole holds those more often.
MEASUREMENT_LABEL: growth (%)
Write the value in % as a bare number.

Problem: Item Cn1ccnc1C(=O)/C=C/c1ccc(CC(=O)Nc2ccccc2)cc1 has what recorded growth?
Result: 10.3

Problem: Another compound to check: O=C(O)COc1ccc(Cl)cc1C1CCCCC1
Result: 110

Problem: Another compound to check: O=C(COc1ccc(/C=C2\COc3ccccc3C2=O)cc1)Nc1nccs1
Result: 107

Problem: Another compound to check: O=C(/C=C/c1ccc(C(F)(F)F)cc1)Nc1ccc(C=C2c3ccccc3C(=O)c3ccccc32)cc1
Result: 72.4

Problem: Another compound to check: CC(O)CN1CC(O)=C(c2nc3ccccc3s2)C1=N (stereo unspecified)
Result: 115

Problem: Another compound to check: COc1cccc(-c2nc3sccn3c2-c2ccnc(NCCCNS(=O)(=O)c3cccc(Cl)c3)c2)c1
Result: 46.4
